- assay protocol: physchem
readout type: pKa at 0.3 h

Reference set (2 entries):
INSERT INTO measurements (chem_smiles, readout_type, value_reported) VALUES
  ('O=C(O)C[C@H](O)C[C@H](O)/C=C/c1c(C2CC2)nc2ccccc2c1-c1ccc(F)cc1', 'pKa at 0.3 h', 4.7),
  ('CCCc1nc2c(C)cc(-c3nc4ccccc4n3C)cc2n1Cc1ccc(-c2ccccc2C(=O)O)cc1', 'pKa at 0.3 h', 4.2);

1 = CCO[C@@H](Cc1ccc(OCCc2ccc(OS(C)(=O)=O)cc2)cc1)C(=O)O
2 = Nc1[nH]ncc1-c1cc(Cl)ccc1Oc1cc(F)c(S(=O)(=O)Nc2cscn2)cc1Cl
Returns: the label, 1 or 2 , whose recorded pKa at 0.3 h is the lower number. I would appreciate it if you answered with the label of your choice.
1
(1: 3.4, 2: 6)

====

- assay protocol: physchem
- details: buffer, pH 7.4
readout type: logD

Reference set (4 entries):
INSERT INTO measurements (compound, value_reported) VALUES
  ('O=C(c1ccccc1)c1ccc2n1CCC2C(=O)O (stereo not drawn)', -0.6),
  ('CN(C)C(=O)CCS[C@H](SCCC(=O)O)c1cccc(/C=C/c2ccc3ccc(Cl)cc3n2)c1', 1.5),
  ('CC(C)n1c(/C=C/C(O)CC(O)CC(=O)O)c(-c2ccc(F)cc2)c2ccccc21 (stereo not drawn)', 1.4),
  ('CC(C)c1nc(N(C)S(C)(=O)=O)nc(-c2ccc(F)cc2)c1/C=C/[C@@H](O)C[C@@H](O)CC(=O)O', 0.1);

a = Cc1ccc(S(=O)(=O)NCCc2ccc(Oc3ccc(F)c(F)c3)cc2)cc1C(=O)O
b = CC[C@H](C)C(=O)O[C@H]1C[C@H](O)C=C2C=C[C@H](C)[C@H](CC[C@@H](O)C[C@@H](O)CC(=O)O)[C@H]21
Returns: the label, a or b , whose recorded logD is the lower number. I would appreciate it if you answered with the label of your choice.
b

====

- assay protocol: in vitro
- details: human, plasma
- Description: Fraction unbound in human plasma
readout type: fraction unbound

INSERT INTO results (compound, value_reported) VALUES
  ('O=C(c1ccccc1)c1ccc2n1CCC2C(=O)O (configuration not stated) [KETOROLAC]', 0.0264);

P = CCCc1nc2c(C)cc(-c3nc4ccccc4n3C)cc2n1Cc1ccc(-c2ccccc2C(=O)O)cc1
Q = Cn1cc(C(=O)O)c2ccc(N3CCC(OCc4c(-c5c(Cl)cccc5Cl)noc4C4CC4)CC3)cc21 [TERN-101]
Returns: the label, P or Q , whose recorded fraction unbound is the lower number. I would appreciate it if you answered with the label of your choice.
P

P = Cc1ccc(NC(=O)C2(c3ccc4c(c3)OC(F)(F)O4)CC2)nc1-c1cccc(C(=O)O)c1 [LUMACAFTOR]
Q = CC(C)c1nc(N(C)S(C)(=O)=O)nc(-c2ccc(F)cc2)c1/C=C/[C@@H](O)C[C@@H](O)CC(=O)O [ROSUVASTATIN]
R = O=C(O)[C@@H]1CCC[C@H]1C(=O)c1ccc(-c2ccc(Nc3nc4ccc(F)cc4s3)c(F)c2)cc1
S = CCCCCN(CCCOC)C(=O)[C@@H](CCC(=O)O)NC(=O)c1ccc(Cl)c(Cl)c1 [DEXLOXIGLUMIDE]
Arrange items by their fraction unbound values in increasing order. # format: label list in the order the request specifies
R, P, S, Q
(R: 0.00086, P: 0.0032, S: 0.00969, Q: 0.158)

A = CC(C)(O)c1ccccc1CC[C@@H](SCC1(CC(=O)O)CC1)c1cccc(/C=C/c2ccc3ccc(Cl)cc3n2)c1 [MONTELUKAST]
B = Cc1nn(-c2cnc(OCC(C)C)c(Cl)c2)c2ccc(C(=O)NS(C)(=O)=O)cc12 [PF-05241328]
Higher fraction unbound between A and B ? I would appreciate it if you answered with the label of your choice.
A
